Let's look at some molecules and their measured inhibition at 1 µM.
# ASSAYED_SYSTEM: kinase domain protein of RC kinase (Homo sapiens, UniProt Q56UN5)
# Sequence (Q56UN5 1061-1324 limits assumed): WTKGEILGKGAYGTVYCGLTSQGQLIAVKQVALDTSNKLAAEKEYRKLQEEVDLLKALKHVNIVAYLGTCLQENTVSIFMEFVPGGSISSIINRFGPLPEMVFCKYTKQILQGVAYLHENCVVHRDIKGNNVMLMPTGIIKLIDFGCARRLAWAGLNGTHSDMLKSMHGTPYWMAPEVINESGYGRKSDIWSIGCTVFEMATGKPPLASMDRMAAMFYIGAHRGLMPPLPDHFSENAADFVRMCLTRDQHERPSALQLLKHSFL
# TEST: Enzymatic assay for kinase inhibitory activity (Crebtide substrate, LANCE read-out)
# Assay type: biochemical
# APPLIED_CONDITIONS: compound at 1 μM
# Description: Solutions of a test compound, Crebtide (a substrate), a kinase, and ATP were prepared using 1×MAPK Buffer (50 mM HEPES, 1 mM EGTA, […], 10 mM MgCl2, 2 mM DTT, and 0.01% Tween 20). […] After the incubation, the anti-Crebtide (5 μL) and EDTA (5 μL) were added to each well to reach their final concentrations of […] and 10 mM, respectively. […] The plates were then read at 665 nm and 615 nm using Perkin Elmer Lance machine. […]

Reference set, count: 5
N#Cc1c(Nc2cccc(Cl)c2)n[nH]c1/N=C/c1ccc(Cl)cc1Cl: ≤ 5%
N#Cc1c(Nc2cccc(Cl)c2)n[nH]c1/N=C/c1ccccc1: 5 to 20%
N#Cc1c(Nc2ccccc2)n[nH]c1/N=C/c1cc(F)cc2c1OCOC2: 5 to 20%
Cn1nc(CSc2ccccc2)c(/C=N/c2[nH]nc(Nc3cccc(Cl)c3)c2C#N)c1Cl: 5 to 20%
COc1ccc(/C=N/c2[nH]nc(Nc3cccc(Cl)c3)c2C#N)cc1: 5 to 20%

Attention now turns to another entry.
Problem: Notebook entry, kinase domain protein of RC kinase (Homo sapiens, UniProt Q56UN5) assay: inhibition at 1 µM of NC(=O)c1c(Nc2cccc(Cl)c2)n[nH]c1/N=C/c1ccc([N+](=O)[O-])c(O)c1 = ?
Result: 20 to 50%

---

# ASSAYED_SYSTEM: kinase domain protein of RC kinase (Homo sapiens)
# TEST: Enzymatic assay for kinase inhibitory activity (Crebtide substrate, LANCE read-out)
# Type: biochemical
# APPLIED_CONDITIONS: compound at 1 μM
Let's look at some compounds and their measured inhibition at 1 µM.

Reference set, count: 3
NC(=O)c1c(Nc2cccc(Cl)c2)n[nH]c1/N=C/c1ccccc1-c1cccs1: 20 to 50%
COc1ccc(/C=N/c2[nH]nc(Nc3ccccc3Cl)c2C(N)=O)c(O)c1: 5 to 20%
NC(=O)c1c(Nc2cccc(Cl)c2)n[nH]c1/N=C/c1ccc(Cl)cc1O: 5 to 20%

Attention now turns to another entry.
Problem: Entry under review: N#Cc1c(Nc2cccc(Cl)c2)n[nH]c1/N=C/c1ccc(Cl)cc1 . Reported inhibition at 1 µM?
Result: 20 to 50%

---

Let's look at some compounds and their measured melting point.

Reference set, count: 5
NC(=O)c1c(Nc2ccc(Cl)cc2)n[nH]c1/N=C/c1ccc(O)cc1: 288 to 289 °C
N#Cc1c(Nc2ccccc2)n[nH]c1/N=C/c1cc(F)cc2c1OCOC2: 247 to 251 °C
N#Cc1c(Nc2cccc(Cl)c2)n[nH]c1/N=C/c1ccc(Oc2ccc(C(F)(F)F)cn2)cc1 [Compound A61]: 264 to 268 °C
COc1ccc(/C=N/c2[nH]nc(Nc3ccccc3Cl)c2C(N)=O)c(O)c1: 267 to 270 °C
N#Cc1c(Nc2cccc(Cl)c2)n[nH]c1/N=C/c1ccc(Cl)cc1Cl: 277 to 281 °C

Problem: Entry under review: COc1ccc(/C=N/c2[nH]nc(Nc3cccc(Cl)c3)c2C(N)=O)cc1 . Reported melting point?
Result: 295 to 298 °C

Problem: Entry under review: N#Cc1c(Nc2ccccc2)n[nH]c1/N=C/c1ccc(O)c([N+](=O)[O-])c1 . Reported melting point?
Result: 284 to 286 °C

Problem: Entry under review: COc1ccc(/C=N/c2[nH]nc(Nc3ccc(Cl)cc3)c2C(N)=O)cc1 . Reported melting point?
Result: 313 to 315 °C

Problem: Entry under review: N#Cc1c(Nc2cccc(Cl)c2)n[nH]c1/N=C/c1c[nH]nc1-c1ccc(F)cc1 . Reported melting point?
Result: 127 to 132 °C

Problem: Entry under review: NC(=O)c1c(Nc2ccccc2Cl)n[nH]c1/N=C/c1ccc(O)cc1 . Reported melting point?
Result: 254 to 258 °C

Problem: Entry under review: NC(=O)c1c(Nc2cccc(Cl)c2)n[nH]c1/N=C/c1c[nH]cn1 . Reported melting point?
Result: 265 to 267 °C

---

Let's look at some compounds and their measured inhibition at 1 µM.
# ASSAYED_SYSTEM: kinase domain protein of RC kinase (Homo sapiens, UniProt Q56UN5)
# TEST: Enzymatic assay for kinase inhibitory activity (Crebtide substrate, LANCE read-out)
# Format: biochemical
# APPLIED_CONDITIONS: compound at 1 μM

Reference set, count: 3
NC(=O)c1c(Nc2cccc(Cl)c2)n[nH]c1/N=C/c1ccc(N2CCOCC2)nc1: 5 to 20%
NC(=O)c1c(Nc2cccc(Cl)c2)n[nH]c1/N=C/c1ccc(OCCO)cc1: 5 to 20%
N#Cc1c(Nc2cccc(Cl)c2)n[nH]c1/N=C/c1cc[nH]c1: ≤ 5%

Problem: Entry under review: NC(=O)c1c(Nc2ccc(Cl)cc2)n[nH]c1/N=C/c1ccccc1OCC(=O)O . Reported inhibition at 1 µM?
Result: ≤ 5%

Problem: Entry under review: N#Cc1c(Nc2ccccc2)n[nH]c1/N=C/c1ccc([N+](=O)[O-])cc1 . Reported inhibition at 1 µM?
Result: 5 to 20%

Problem: Entry under review: Cc1ncsc1/C=N/c1[nH]nc(Nc2cccc(Cl)c2)c1C(N)=O . Reported inhibition at 1 µM?
Result: ≥ 50%

Problem: Entry under review: NC(=O)c1c(Nc2cccc(Cl)c2)n[nH]c1/N=C/c1cc(Br)ccc1O . Reported inhibition at 1 µM?
Result: 5 to 20%

Problem: Entry under review: Cc1cc(C)cc(Nc2n[nH]c(/N=C/c3ccc(O)cc3)c2C#N)c1 . Reported inhibition at 1 µM?
Result: 5 to 20%

---

# ASSAYED_SYSTEM: kinase domain protein of RC kinase (Homo sapiens, UniProt Q56UN5)
# TEST: Enzymatic assay for kinase inhibitory activity (Crebtide substrate, LANCE read-out)
# Format: biochemical
# APPLIED_CONDITIONS: compound at 1 μM
Let's look at some compounds and their measured inhibition at 1 µM.

N#Cc1c(Nc2cccc(Cl)c2)n[nH]c1/N=C/c1ccc(Oc2ccc(C(F)(F)F)cn2)cc1: 5 to 20%
COc1ccc(/C=N/c2[nH]nc(Nc3ccc(OC)cc3)c2C#N)cc1: ≤ 5%
COc1ccc(/C=N/c2[nH]nc(Nc3ccccc3Cl)c2C(N)=O)cc1: ≥ 50%
COc1cc(/C=N/c2[nH]nc(Nc3ccccc3)c2C#N)ccc1O: 5 to 20%
N#Cc1c(Nc2ccccc2)n[nH]c1/N=C/c1ccc(Cl)cc1: 5 to 20%

Problem: Entry under review: COc1cc(/C=N/c2[nH]nc(Nc3cccc(Cl)c3)c2C#N)ccc1OCc1cnc(Cl)s1 . Reported inhibition at 1 µM?
Result: 5 to 20%

Problem: Entry under review: N#Cc1c(Nc2ccccc2)n[nH]c1/N=C/c1ccccc1 . Reported inhibition at 1 µM?
Result: 20 to 50%

Problem: Entry under review: N#Cc1c(Nc2cccc(Cl)c2)n[nH]c1/N=C/c1cccc(Oc2ncccn2)c1 . Reported inhibition at 1 µM?
Result: 5 to 20%

---

Let's look at some molecules and their measured melting point.

NC(=O)c1c(Nc2cccc(Cl)c2)n[nH]c1/N=C/c1ccccc1O: 284 to 286 °C

Problem: Entry under review: N#Cc1c(Nc2cccc(Cl)c2)n[nH]c1/N=C/c1ccc(Cl)cc1O . Reported melting point?
Result: 283 to 284 °C

Problem: Entry under review: N#Cc1c(Nc2ccccc2)n[nH]c1/N=C/c1ccc(Cl)cc1 . Reported melting point?
Result: 276 to 278 °C

Problem: Entry under review: N#Cc1c(Nc2cccc(Cl)c2)n[nH]c1/N=C/c1cc[nH]c1 . Reported melting point?
Result: 240 to 248 °C

Problem: Entry under review: NC(=O)c1c(Nc2cccc(Cl)c2)n[nH]c1/N=C/c1ccc(O)cc1O . Reported melting point?
Result: 220 to 225 °C

Problem: Entry under review: Cn1nc(CSc2ccccc2)c(/C=N/c2[nH]nc(Nc3cccc(Cl)c3)c2C#N)c1Cl . Reported melting point?
Result: 194 to 202 °C

Problem: Entry under review: N#Cc1c(Nc2cccc(Cl)c2)n[nH]c1/N=C/c1ccc(S(F)(F)(F)(F)F)cc1 . Reported melting point?
Result: 200 to 216 °C

Problem: Entry under review: NC(=O)c1c(Nc2cccnc2)n[nH]c1/N=C/c1ccc(O)cc1 . Reported melting point?
Result: 306 to 309 °C

---

Let's look at some molecules and their measured melting point.

Reference set, count: 4
N#Cc1c(Nc2cccc(Cl)c2)n[nH]c1/N=C/c1ccc(OC(F)F)c(O)c1: 164 to 176 °C
N#Cc1c(Nc2ccccc2)n[nH]c1/N=C/c1ccc(O)cc1: 241 to 245 °C
N#Cc1c(Nc2cccc(Cl)c2)n[nH]c1/N=C/C1CCCN1C(=O)OCc1ccccc1 (centres unmarked): 65 to 72 °C
COc1cc(/C=N/c2[nH]nc(Nc3ccccc3)c2C#N)ccc1O: 208 to 214 °C

Problem: Entry under review: Cc1ccc(/C=N/c2[nH]nc(Nc3cccc(Cl)c3)c2C#N)c(O)c1 . Reported melting point?
Result: 293 to 296 °C
